# ASSAY_SUMMARY: Permeability from apical to basolateral side of human Caco2 cells
# Format: ADME, cell-based
# ASSAY_SETUP: caco-2, read-out: permeability
METRIC_NAME: Papp A→B (×10⁻⁶ cm/s)

[[record]]
smiles_record = "COc1cccc(OC2CN(c3c4c(nc5ccnn35)CCNCC4)C2)c1"
result_unit = "×10⁻⁶ cm/s"
meas_value = 10.1

[[record]]
smiles_record = "COc1ccc(OC2CN(c3c4c(nc5ccnn35)CCNCC4)C2)cc1"
result_unit = "×10⁻⁶ cm/s"
meas_value = 10.4

[[record]]
smiles_record = "c1ccc(OC2CN(c3c4c(nc5ccnn35)CCNCC4)C2)cc1"
result_unit = "×10⁻⁶ cm/s"
meas_value = 13.3

[[record]]
smiles_record = "CC(=O)N(C)c1ccc(OC2CN(c3c4c(nc5ccnn35)CCNCC4)C2)cc1"
result_unit = "×10⁻⁶ cm/s"
meas_value = 0.62

[[record]]
smiles_record = "c1ccc(OC2CN(c3c4c(nc5ccnn35)CCNCC4)C2)nc1"
result_unit = "×10⁻⁶ cm/s"
meas_value = 10.3

[[record]]
smiles_record = "Fc1cccc(OC2CN(c3c4c(nc5ccnn35)CCNCC4)C2)c1"
result_unit = "×10⁻⁶ cm/s"
meas_value = 7.9


----------
# SUBJECT_OF_TEST: 5-hydroxytryptamine receptor 2B (Homo sapiens, UniProt P41595)
# Sequence (P41595 whole entry): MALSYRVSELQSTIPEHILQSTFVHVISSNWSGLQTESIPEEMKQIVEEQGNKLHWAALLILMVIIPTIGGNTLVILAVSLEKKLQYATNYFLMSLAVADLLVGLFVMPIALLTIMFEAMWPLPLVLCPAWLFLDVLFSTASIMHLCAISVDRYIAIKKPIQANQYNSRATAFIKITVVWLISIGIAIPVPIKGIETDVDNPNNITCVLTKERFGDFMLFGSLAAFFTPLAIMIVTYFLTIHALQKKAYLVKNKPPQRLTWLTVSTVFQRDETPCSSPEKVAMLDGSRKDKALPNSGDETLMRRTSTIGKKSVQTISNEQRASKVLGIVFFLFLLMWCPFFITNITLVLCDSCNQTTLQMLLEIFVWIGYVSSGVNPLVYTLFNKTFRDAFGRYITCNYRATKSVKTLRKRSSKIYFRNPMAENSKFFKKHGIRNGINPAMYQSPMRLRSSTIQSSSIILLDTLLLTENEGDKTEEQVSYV
# ASSAY_SUMMARY: Agonist activity at human recombinant 5HT2B receptor expressed in CHOK1 cells assessed as induction of intracellular calcium release by FLIPR assay
EC50 under 400 nM gets 1 (yes), anything at or over 400 nM gets 0 (no).

[[record]]
smiles_record = "CCNc1c2c(nc3ccnn13)CCNCC2"
label_value = "0 (no)"

[[record]]
smiles_record = "CCN(C)c1c2c(nc3ccnn13)CCNCC2"
label_value = "0 (no)"

[[record]]
smiles_record = "c1ccc(OC2CN(c3c4c(nc5ccnn35)CCNCC4)C2)cc1"
label_value = "1 (yes)"

[[record]]
smiles_record = "c1ccc(OC2CN(c3c4c(nc5ccnn35)CCNCC4)C2)nc1"
label_value = "0 (no)"

[[record]]
smiles_record = "c1cc2nc3c(c(N4CCC4)n2n1)CCNCC3"
label_value = "1 (yes)"

[[record]]
smiles_record = "COc1ccccc1OC1CN(c2c3c(nc4ccnn24)CCNCC3)C1"
label_value = "1 (yes)"


----------
# SUBJECT_OF_TEST: UniProt:P41595
# ASSAY_SUMMARY: Agonist activity at human recombinant 5HT2B receptor expressed in CHOK1 cells assessed as induction of intracellular calcium release by FLIPR assay
# binning rule on EC50: bottom = under 200 nM, middle = from 200 nM up to 1000 nM, top = 1000 nM and over

[[record]]
smiles_record = "Fc1ccccc1OC1CN(c2c3c(nc4ccnn24)CCNCC3)C1"
subject_of_test = "UniProt:P41595"
label_value = "bottom"

[[record]]
smiles_record = "Fc1cccc(OC2CN(c3c4c(nc5ccnn35)CCNCC4)C2)c1"
subject_of_test = "UniProt:P41595"
label_value = "bottom"

[[record]]
smiles_record = "c1cc(OC2CN(c3c4c(nc5ccnn35)CCNCC4)C2)ccn1"
subject_of_test = "UniProt:P41595"
label_value = "top"

[[record]]
smiles_record = "c1cc2nc3c(c(N4CCCCC4)n2n1)CCNCC3"
subject_of_test = "UniProt:P41595"
label_value = "top"

[[record]]
smiles_record = "O=C1Cc2cc(OC3CN(c4c5c(nc6ccnn46)CCNCC5)C3)ccc2N1"
subject_of_test = "UniProt:P41595"
label_value = "bottom"

[[record]]
smiles_record = "Fc1ccc(OC2CN(c3c4c(nc5ccnn35)CCNCC4)C2)cc1"
subject_of_test = "UniProt:P41595"
label_value = "bottom"

[[record]]
smiles_record = "c1cncc(OC2CN(c3c4c(nc5ccnn35)CCNCC4)C2)c1"
subject_of_test = "UniProt:P41595"
label_value = "top"

[[record]]
smiles_record = "CC(=O)N(C)c1ccc(OC2CN(c3c4c(nc5ccnn35)CCNCC4)C2)cc1"
subject_of_test = "UniProt:P41595"
label_value = "top"

[[record]]
smiles_record = "c1cc2nc3c(c(N4CCCC4)n2n1)CCNCC3"
subject_of_test = "UniProt:P41595"
label_value = "top"

[[record]]
smiles_record = "COc1ccc(OC2CN(c3c4c(nc5ccnn35)CCNCC4)C2)cc1"
subject_of_test = "UniProt:P41595"
label_value = "middle"

[[record]]
smiles_record = "COc1cccc(OC2CN(c3c4c(nc5ccnn35)CCNCC4)C2)c1"
subject_of_test = "UniProt:P41595"
label_value = "middle"


----------
# SUBJECT_OF_TEST: 5-hydroxytryptamine receptor 2A (Homo sapiens, UniProt P28223)
# Sequence (P28223 whole entry): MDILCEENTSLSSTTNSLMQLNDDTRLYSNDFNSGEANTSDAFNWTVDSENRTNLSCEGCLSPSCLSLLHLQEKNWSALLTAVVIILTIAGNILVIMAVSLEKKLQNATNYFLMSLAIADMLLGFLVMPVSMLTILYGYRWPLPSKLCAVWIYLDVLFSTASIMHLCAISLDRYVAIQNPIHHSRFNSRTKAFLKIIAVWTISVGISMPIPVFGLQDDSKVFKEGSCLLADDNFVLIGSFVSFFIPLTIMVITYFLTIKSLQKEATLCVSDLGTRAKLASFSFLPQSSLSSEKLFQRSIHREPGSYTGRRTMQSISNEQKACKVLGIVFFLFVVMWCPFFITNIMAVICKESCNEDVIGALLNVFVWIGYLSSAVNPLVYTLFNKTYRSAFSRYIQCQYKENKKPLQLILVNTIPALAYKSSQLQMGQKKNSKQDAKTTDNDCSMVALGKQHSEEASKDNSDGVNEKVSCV
# ASSAY_SUMMARY: Agonist activity at human recombinant 5HT2A receptor expressed in CHOK1 cells assessed as induction of intracellular calcium release by FLIPR assay relative to 5-HT
# Format: functional, cell-based
# ASSAY_SETUP: CHO-K1
Some compounds, each annotated with its measured Emax.
METRIC_NAME: Emax (%)

[[record]]
smiles_record = "c1cc2nc3c(c(N4CCCCC4)n2n1)CCNCC3"
meas_value = 10

[[record]]
smiles_record = "COc1cccc(OC2CN(c3c4c(nc5ccnn35)CCNCC4)C2)c1"
meas_value = 9

[[record]]
smiles_record = "CC(=O)N(C)c1ccc(OC2CN(c3c4c(nc5ccnn35)CCNCC4)C2)cc1"
meas_value = 35

[[record]]
smiles_record = "c1cc2nc3c(c(N4CCC4)n2n1)CCNCC3"
meas_value = 51


----------
Recorded pEC50 for the following molecules
# SUBJECT_OF_TEST: 5-hydroxytryptamine receptor 2A (Homo sapiens)
# ASSAY_SUMMARY: Agonist activity at human recombinant 5HT2A receptor expressed in CHOK1 cells assessed as induction of intracellular calcium release by FLIPR assay
pEC50: −log10 of the molar value.
METRIC_NAME: pEC50

[[record]]
smiles_record = "O=C1Cc2cc(OC3CN(c4c5c(nc6ccnn46)CCNCC5)C3)ccc2N1"
metric_name = "pEC50"
meas_value = 6.12

[[record]]
smiles_record = "c1cc2nc3c(c(N4CCCC4)n2n1)CCNCC3"
metric_name = "pEC50"
meas_value = 5.64

[[record]]
smiles_record = "COc1ccc(OC2CN(c3c4c(nc5ccnn35)CCNCC4)C2)cc1"
metric_name = "pEC50"
meas_value = 5.58


----------
# SUBJECT_OF_TEST: 5-hydroxytryptamine receptor 2B (Homo sapiens, UniProt P41595)
# ASSAY_SUMMARY: Agonist activity at human recombinant 5HT2B receptor expressed in CHOK1 cells assessed as induction of intracellular calcium release by FLIPR assay relative to 5-HT
# Assay type: functional, cell-based
# ASSAY_SETUP: CHO-K1
Please enter Satisfied where Emax is greater than or equal to 70%, and Not satisfied where it is lower.

[[record]]
smiles_record = "O=C1Cc2cc(OC3CN(c4c5c(nc6ccnn46)CCNCC5)C3)ccc2N1"
label_value = "Satisfied"

[[record]]
smiles_record = "c1cc2nc3c(c(N4CCC4)n2n1)CCNCC3"
label_value = "Satisfied"

[[record]]
smiles_record = "COc1ccccc1OC1CN(c2c3c(nc4ccnn24)CCNCC3)C1"
label_value = "Satisfied"

[[record]]
smiles_record = "Fc1ccc(OC2CN(c3c4c(nc5ccnn35)CCNCC4)C2)cc1"
label_value = "Not satisfied"

[[record]]
smiles_record = "c1cc2nc3c(c(N4CCCC4)n2n1)CCNCC3"
label_value = "Not satisfied"

